System: 922993-354-T-J3-PDC complex spheroids, viability, % test/control;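 also: spheroids exposed to the agents for 7 days before readout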
Assay: Anticancer human tumor 922993-354-T-J3-PDC patient-derived endometrial carcinoma cell line growth inhibition [CLK]
Details: second compound 0.0316 µM; first compound 0.1 µM; hits give low values
Could you please mark Satisfied for values of viability, T/C below 90% and Not satisfied for values at or above it?

# count of solved cases: 6
compound | group-label
COc1cccc2c1C(=O)c1c(O)c3c(c(O)c1C2=O)CC(O)(C(=O)CO)CC3OC1CC(N)C(O)C(C)O1 (stereo unspecified) + CNC(=O)c1ccc(Nc2nc(OC3CCCC3)c3c(-c4ccc5nc(C)oc5c4)c[nH]c3n2)c(OC)c1 | Not satisfied
COc1c(OCCCN2CCOCC2)ccc2c3n(c(=NC(=O)c4cnc(N)nc4)nc12)CCN3 + CNC(=O)c1ccc(Nc2nc(OC3CCCC3)c3c(-c4ccc5nc(C)oc5c4)c[nH]c3n2)c(OC)c1 | Satisfied
CC1(C)CCC(CN2CCN(c3ccc(C(=O)NS(=O)(=O)c4ccc(NCC5CCOCC5)c([N+](=O)[O-])c4)c(Oc4cnc5[nH]ccc5c4)c3)CC2)=C(c2ccc(Cl)cc2)C1 + CNC(=O)c1ccc(Nc2nc(OC3CCCC3)c3c(-c4ccc5nc(C)oc5c4)c[nH]c3n2)c(OC)c1 | Not satisfied
O=C(c1cc(Cc2n[nH]c(=O)c3ccccc23)ccc1F)N1CCN(C(=O)C2CC2)CC1 + CNC(=O)c1ccc(Nc2nc(OC3CCCC3)c3c(-c4ccc5nc(C)oc5c4)c[nH]c3n2)c(OC)c1 | Not satisfied
COC1C=CCC(C)C(C)S(=O)(=O)NC(=O)c2ccc3c(c2)N(CC2CCC21)CC1(CCCc2cc(Cl)ccc21)CO3 (stereo unspecified) + CNC(=O)c1ccc(Nc2nc(OC3CCCC3)c3c(-c4ccc5nc(C)oc5c4)c[nH]c3n2)c(OC)c1 | Not satisfied
CCc1c2c(nc3ccc(O)cc13)-c1cc3c(c(=O)n1C2)COC(=O)[C@]3(O)CC + CNC(=O)c1ccc(Nc2nc(OC3CCCC3)c3c(-c4ccc5nc(C)oc5c4)c[nH]c3n2)c(OC)c1 | Satisfied

Q: Is viability, T/C strictly under 90% for the entry COC1C=CCC(C)C(C)S(=O)(=O)NC(=O)c2ccc3c(c2)N(CC2CCC21)CC1(CCCc2cc(Cl)ccc21)CO3 (stereo unspecified) + CN1CCN(c2cc(C(=O)Nc3cc4cc(-c5cnn(C)c5)ccc4cn3)ccn2)CC1 ?
Result: Not satisfied

Q: Next compound: CC(=O)O[C@H]1C(=O)[C@@]2(C)[C@H]([C@H](OC(=O)c3ccccc3)[C@]3(O)C[C@H](OC(=O)[C@H](O)[C@@H](NC(=O)c4ccccc4)c4ccccc4)C(C)=C1C3(C)C)[C@]1(OC(C)=O)CO[C@@H]1C[C@@H]2O + CNC(=O)c1ccc(Nc2nc(OC3CCCC3)c3c(-c4ccc5nc(C)oc5c4)c[nH]c3n2)c(OC)c1
Result: Not satisfied

Q: Next compound: Nc1ccn(C2OC(CO)C(O)C2(F)F)c(=O)n1 (stereo unspecified) + CN1CCN(c2cc(C(=O)Nc3cc4cc(-c5cnn(C)c5)ccc4cn3)ccn2)CC1
Result: Satisfied

Q: Next compound: C=C(F)C(=O)N1CCN(c2nc(OCC3CCCN3C)nc3c2CCN(c2cccc4cccc(Cl)c24)C3)CC1CC#N (stereo unspecified) + CNC(=O)c1ccc(Nc2nc(OC3CCCC3)c3c(-c4ccc5nc(C)oc5c4)c[nH]c3n2)c(OC)c1
Result: Not satisfied

Cited source for all entries: PubChem BioAssay AID2060606
